Molecular target: human CXCR3 (N-delta 4) (Homo sapiens, UniProt P49682)
Construct: CD8 leader (N); Flag; expressed in transfected cells; membranes prepared
Sequence (P49682 5-368 limits assumed): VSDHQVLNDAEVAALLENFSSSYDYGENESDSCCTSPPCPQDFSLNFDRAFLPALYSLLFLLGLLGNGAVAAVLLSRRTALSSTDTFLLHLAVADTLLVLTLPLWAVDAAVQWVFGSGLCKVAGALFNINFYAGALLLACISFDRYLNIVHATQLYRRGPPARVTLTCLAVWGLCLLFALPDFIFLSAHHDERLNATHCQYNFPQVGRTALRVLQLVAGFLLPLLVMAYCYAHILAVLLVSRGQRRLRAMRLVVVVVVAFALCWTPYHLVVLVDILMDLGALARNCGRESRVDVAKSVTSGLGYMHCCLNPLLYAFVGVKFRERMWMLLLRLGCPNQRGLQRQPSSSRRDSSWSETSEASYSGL
Assay: Human CXCR3 (N-delta 4) Scintillation Proximity Assay (SPA), [125I] IP-10 binding to Ba/F3-hCXCR3 membranes
Conditions: IC50 rating, Table 1; read-out: IC50
Description: The inventive compounds can readily be evaluated to determine activity at the CXCR3 receptors by known methods, such as, for example, development of a human CXCR3 (N-delta 4) Binding Assay. Cloning and Expression of Human CXCR3 (N-delta 4): The DNA encoding human CXCR3 was cloned by PCR using human genomic DNA (Promega, Madison, Wis.) as a template. […]
pIC50: −log10 of the molar value.
For each record, write down the corresponding pIC50.

Lookup: GET /values?readout=pIC50&item= CC[C@H]1CN(c2nc(N)c(C(=O)OC)nc2Cl)CCN1C1CCN(Cc2ccc(Cl)cc2F)CC1
Found: > 7.60

Lookup: GET /values?readout=pIC50&item= CC[C@H]1CN(c2nc(N)c(C(=O)NC[C@@H](O)CO)nc2Cl)CCN1C1CCN(C(=O)c2ccc(Cl)cc2)CC1
Found: < 7.00

Lookup: GET /values?readout=pIC50&item= CC[C@H]1CN(c2ncc(C(=O)NC3CC3)nc2C)CCN1C1CCN(C(=O)c2ccc(F)c(OC)c2)CC1
Found: > 7.60

Lookup: GET /values?readout=pIC50&item= CC[C@H]1CN(c2nc(N)c(C(=O)NCCO)nc2Cl)CCN1C1CCN(C2c3ccc(C#N)cc3CCC2O)CC1 (some centres unmarked)
Found: > 7.60

Lookup: GET /values?readout=pIC50&item= CC[C@H]1CN(c2nc(N)c(C(=O)NCCO)nc2Cl)CCN1C1CCN(Cc2ccc(Cl)cc2O)CC1
Found: > 7.60

Lookup: GET /values?readout=pIC50&item= CC[C@H]1CN(c2nc(N)c(C(=O)NC)nc2Cl)CCN1C1CCN(CCCNC(=O)c2ccc(Cl)cc2)CC1
Found: < 7.00

Lookup: GET /values?readout=pIC50&item= CC[C@H]1CN(c2nc(N)c(C(=O)NCCNS(C)(=O)=O)nc2Cl)CCN1C1CCN([C@@H](C(=O)OC)c2ccc(Cl)cc2)CC1
Found: 7.00 to 7.60

Lookup: GET /values?readout=pIC50&item= CC[C@H]1CN(c2nc(N)c(C(=O)NCCO)nc2Cl)CCN1C1CCN(Cc2ccc(F)c(OC)c2)CC1
Found: > 7.60

Lookup: GET /values?readout=pIC50&item= CC[C@H]1CN(c2ncc(C(=O)NC)nc2C)CCN1C1CCN(C(=O)c2ccc(Cl)cc2F)CC1
Found: > 7.60

Lookup: GET /values?readout=pIC50&item= CC[C@H]1CN(c2nc(N)c(C(N)=O)nc2Cl)CCN1C1CCN(Cc2ccc(Cl)cc2CCNS(C)(=O)=O)CC1
Found: 7.00 to 7.60

Lookup: GET /values?readout=pIC50&item= CCNC(=O)c1nc(Cl)c(N2CCN(C3CCN(C(=O)c4ccc(Cl)cc4)CC3)[C@@H](CC)C2)nc1N
Found: > 7.60

Lookup: GET /values?readout=pIC50&item= CC[C@H]1CN(c2nc(N)c(C(=O)NCCN)nc2Cl)CCN1C1CCN(Cc2ccc(Cl)cc2C#N)CC1
Found: 7.00 to 7.60

Lookup: GET /values?readout=pIC50&item= CC[C@H]1CN(c2nc(NC(=O)C(F)(F)F)c(C(N)=O)nc2Cl)CCN1C1CCN(Cc2ccc(Cl)cc2F)CC1
Found: > 7.60

Lookup: GET /values?readout=pIC50&item= CC[C@H]1CN(c2nc(N)c(C(N)=O)nc2Cl)CCN1C1CCN(Cc2ccc(Cl)cc2CC(=O)O)CC1
Found: 7.00 to 7.60
